Values compiled from patent US20260258115A1.

Molecular target: RSV F on RSV-A2 virus (Respiratory Syncytial Virus (RSV-A2), UniProt P03420 26-574)
Assay: cell-based or functional assay
reportedEndpoint: Neutralization IC50 (RSV subtype A)

These solved cases illustrate the format of a correct answer.
binder	reportedEndpoint	valueReported
ADI-41540 (antibody, V domains shown) VH: QVQLQQWGAGLLKPSETLSLTCGVYGGSFTGYQWSWIRQSPGKGLEWIGDIDHGGNTNYRPSLKSRIITSVNMSKKEFSLKLASVTAADTAVYYCARGVGFLEFSGGPTGRRRNWFDSWGQGTLVTVSS VL: DIQLTQSPGTLSLSPGEGATLSCRASQSVGGSYLAWYQQRPGQAPRLLIYGASNRAADSPDRFSGSGSATDFTLTISRLEPEDFAVYYCQQYGSSPWTFGQGTKVEIK	Neutralization IC50 (RSV subtype A)	> 25 µg/mL
ADI-41474 (antibody, V domains shown, also called Ab 757; Antibody Number 757) VH: QVQLVQSGAEVKRPGASVKVSCKISGYTFTSHYIHWLRQAPGQGLEWMGWINPNTGDTKYEQKFQGRVTMTRDTSLSTAYMELRRLRSDDTAVYYCARDSFYAANGYYFVWFDPWGQGALVTVSS VL: DIQMTQSPTSLSASVGDRVTITCRASQSISSYLNWYQQKPGKAPRFLIYAASSLQSGVPSRFRGSGSGTDFTLTISSLQPEDFATYYCQQSYSSPYTFGQGTKVEIK	Neutralization IC50 (RSV subtype A)	0.26 µg/mL

We next turn to a different binder, shown below.
Bench note: what Neutralization IC50 (RSV subtype A) did ADI-41529 (antibody, V domains shown) VH: EVQLVQSGAEVRRPGSSVKVSCKASGGTLDTDSISWVRQVPGQGLVWVGGVIPILGSVVYARKFQGRVTITADGSTSTAYMELRSLRSEDTAMYYCASQFYDFRRGYFDAFDIWGQGTTVTVSS VL: ETTLTQSPGILSLSPGERATLSCRATQTVISNYINWYQQKPGQAPRLLIYGASSRATGIPDRFSGSGSGTDFTLTISRLEPEDFAVYYCQRYDSSPPGFTFGPGTKVDIK show? > 25 µg/mL
